System: A498 renal
ASSAY TEXT: NCI tumour cell line growth inhibition, 48 h
Recorded TGI values for a group of compounds are listed next.

COMPOUND	LT GT EQ	TGI [µM]
Nc1nc(NCCCO)cc(=O)[nH]1	>	100
CSc1nc2c(c(=O)n1C)CN(C1CCCCC1)C(=O)C(c1ccccc1)N2 (stereo unspecified)	=	37.6
COc1nc(N)c(NC(C)=O)c(=O)n1C	>	100
CC(=O)OCC1OC(n2c3c(c(-c4ccc(Cl)cc4)c(C#N)c2=S)CCCC3)C(OC(C)=O)C(OC(C)=O)C1OC(C)=O (stereo unspecified)	=	79.3
CO[C@H]1CC(O[C@@H]2/C(C)=C/C[C@@H]3C[C@@H](C[C@]4(CC[C@H](C)[C@@H](C5CCCCC5)O4)O3)OC(=O)[C@@H]3C=C(C)/C(=N/O)[C@H]4OC/C(=C\C=C\[C@@H]2C)[C@]43O)O[C@@H](C)C1O (stereo partly specified)	=	1.95
NC1=NN(c2ccccc2)C(=O)C1C(=O)C(=O)Nc1ccc(Cl)c(Cl)c1 (stereo unspecified)	>	100

----------
Tested on: TK-10 renal
ASSAY TEXT: NCI tumour cell line growth inhibition, 48 h

COMPOUND	LT GT EQ	TGI, µM
CCCCc1ccc(Nc2nc(OC)c3ncn(C4CC(O)C(CO)O4)c3n2)cc1 (stereo not drawn)	=	50.1
COC(=O)[C@@H]1Cc2c([nH]c3ccccc23)[C@H](c2ccccc2)N1	>	100
COC(=O)c1oc2c(C(=O)/C=C/c3ccc(OC)cc3)c(OCCN(C)C)ccc2c1C	=	23
Clc1ccccc1-c1nnc2c(Cc3ccccc3)nc3ccccc3n12	>	100
COC(=O)c1cc2c3ccccc3n3c2c(n1)-c1[nH]c2ccccc2c(=O)c1C3	=	45.9
O=C(Nc1ccc(Cl)c(Cl)c1)C(=O)C(C(=O)c1ccccc1-c1ccccc1)C1OC(=O)c2ccccc21 (stereo not drawn)	=	43.7
CCN(Cc1cccc(Cl)c1)c1ccc(CO)c(Cl)c1	=	0.321
CC(C)CC(N)C(=O)Nc1ccc2ccccc2c1 (stereo not drawn)	>	100

----------
Test system: LOX IMVI melanoma
ASSAY TEXT: NCI tumour cell line growth inhibition, 48 h
Recorded TGI values for a group of compounds are listed next.

COMPOUND	TGI
CN(C)N1C(=O)S/C(=C\c2ccc([N+](=O)[O-])cc2)C1=O	> 100 µM
Cc1c(CCCl)c(N=P(c2ccccc2)(c2ccccc2)c2ccccc2)n2c(nc3ccccc32)c1C#N	> 10 µM
CC(C)COc1nc2c(c(=O)n(C)c(=O)n2C)n1C	> 100 µM
Cc1cc(C)c(-c2noc(-c3ccc(Cl)cc3)c2C2=NCCCN2)c(C)c1	37.1 µM
CCCCc1ccc(Nc2nc(OC)c3ncn(C4CC(O)C(CO)O4)c3n2)cc1 (stereo unspecified)	31.4 µM
CC(C)C(OC(=O)c1ccc(NCC2=CC(=O)C=CC2=O)cc1)C(C)C	18 µM
CNS(=O)(=O)NNS(=O)(=O)c1ccc(OC)cc1	> 100 µM
Nc1ncnc2c1ncn2C1CCC(CP(=O)(O)O)C1 (stereo unspecified)	> 100 µM
Nc1ccccc1C(=O)CCC1C(=O)NC(=S)NC1=O	> 100 µM
CC(=O)O[C@H]1C(=O)[C@@]2(C)[C@H]([C@H](OC(=O)c3ccccc3)[C@]3(O)C[C@H](OC(=O)[C@H](O)[C@@H](NC(=O)c4ccco4)c4ccccc4)C(C)=C1C3(C)C)[C@]1(OC(C)=O)CO[C@@H]1C[C@@H]2O	> 12.5 µM
CC(=O)OCC(=O)OC[C@H](OCc1ccccc1)[C@@H]1[C@H](OC(C)=O)C(=O)N1Cc1ccccc1	> 100 µM
O=[S@]1c2ccc3ccccc3c2N[C@@H]2[C@H]1[C@H]1C=C[C@@H]2C1	> 100 µM
CC(=O)C1=C(O)C=C2Oc3c(C(=O)/C=C/c4cc(Cl)cc(Cl)c4)c(O)c(C)c(O)c3[C@]2(C)C1=O	1.79 µM
C/C=C1\CN2CCc3c([nH]c4ccccc34)C2CC1CCO (stereo unspecified)	> 100 µM
COc1cc(C2(c3ncc[nH]3)SSSCC2O)ccc1O (stereo unspecified)	> 54.5 µM
Cc1cc(=O)n(-c2cc3cccccc-3n2)[nH]1	> 100 µM
COC(=O)c1cc(NC(=O)Cc2c[nH]c3ccccc23)cn1C	> 100 µM
CC1CCC2CC(=O)OC([C@@H]3C(=O)O[C@@H](C4=CCCC4)C4C(C)CCC43)C12 (stereo partly specified)	> 100 µM
CSc1ccc(Nc2cc(=O)[nH]c(=O)[nH]2)cc1	> 100 µM
CCOC(=O)CC(NC(=O)c1[nH]cnc1/N=N/N(C)C)C(=O)OCC (stereo unspecified)	> 100 µM
N[C@@H]1CCN(c2c(F)cc3c(=O)c(C(=O)O)cn4c3c2Oc2cc3c(ccc5ccccc53)cc2-4)C1	> 63.7 µM
Nc1nc(/C=C\c2ccccc2)nc(N2CCN(c3ccccc3)CC2)n1	40.6 µM
O=C1Nc2nccnc2C(=O)N2CCC[C@@H]12	> 100 µM
CN(/N=C/c1ccnc2ccccc12)c1c([N+](=O)[O-])cc([N+](=O)[O-])cc1[N+](=O)[O-]	> 100 µM
O=C(CCN1CCCCC1)N1CCc2c([nH]c3ccccc23)C1c1cccnc1 (stereo unspecified)	> 100 µM
OC(CN(CCCl)CCCl)C(O)C(O)C(O)CN(CCCl)CCCl (stereo unspecified)	> 100 µM
Cc1c(N=C/C=C/c2ccccc2)c(=O)n(-c2ccccc2)n1C	25 µM
Cc1cc2nc3ccccc3n2c2nc(N)ccc12	> 100 µM
Cc1cn(Cc2ccc(C34CC5CC(CC(C5)C3)C4)c(O)c2)c(=O)[nH]c1=O	23.3 µM
S=c1ncc2c([nH]1)C1c3ccccc3C2c2ccccc21	> 100 µM
CCCCCC/C=C\CCCCCCCCCC1=C(CN2CCN(C)CC2)C(=O)C=C(OC)C1=O	9.79 µM
O=[N+]([O-])c1cc([N+](=O)[O-])c(Nn2c3ccccc3c3ccccc32)c([N+](=O)[O-])c1	11.7 µM
CCCCCc1c(CCCC)c(=O)[nH]c2nc(NC(=O)CCCC)ccc12	> 100 µM
CSc1nc2c(c(=O)n1C)CN(C1CCCCC1)C(=O)C(c1ccccc1)N2 (stereo unspecified)	> 100 µM
C=CCC(N[C@@H](CO)c1ccccc1)c1cn(C(=O)OCC)c2ccccc12 (stereo partly specified)	32.2 µM
CC1NC(=O)C2=C1C(=O)NC(=O)C2 (stereo unspecified)	> 100 µM
CCOC(=O)NC(Nc1ccc(F)cc1)(C(=O)OCC)C(F)(F)F (stereo unspecified)	> 100 µM
CC1C2C=C(O)C(=O)C(C2=O)C1c1ccccc1 (stereo unspecified)	> 100 µM
CCCCCCCCCCCCOC1C(CNC(=O)C2OC3OC(C)(C)OC3C2NC(=O)CN2CCN(c3ccc(OC)cc3)CC2)OC2OC(C)(C)OC21 (stereo unspecified)	12.3 µM
CC1=C(O)c2ccccc2C(=O)C1=O	> 100 µM
Cn1c2ccccc2c(=O)c2c(O)cc3c(c21)C=CC(C)(C)O3	> 25 µM

Each recorded value in this set is attributed to PubChem BioAssay (NCI).
